Catalogue of TGI values
# System: SNB-75 CNS
# protocolText: NCI tumour cell line growth inhibition, 48 h
resultType: TGI (µM)

# molecule, resultType, operator, reading
measured = [
    ("CCCC[C@H](NC(=O)[C@H]1CCCCN1C)C(=O)N(C)[C@H](C[C@@H](OC(C)=O)c1nc(C(=O)N[C@@H](Cc2ccccc2)C[C@H](C)C(=O)OCC)cs1)C(C)C", "TGI", "=", 10.8),
    ("O=C(/C=C/c1ccc2ccccc2c1)NCc1ccc(C(=O)NCc2ccccc2)cc1", "TGI", "=", 71.1),
    ("C=C1CC2(CC(c3ccccc3OC)OC(c3ccccc3OC)C2)OC1=O (stereo not given)", "TGI", "=", 9.09),
    ("COc1ccc(/C=C2/SC(c3ccc(Cl)cc3)N(NC(=O)CCCCCCCCC(=O)NN3C(=O)/C(=C\\c4ccc(OC)c(OC)c4)SC3c3ccc(Cl)cc3)C2=O)cc1OC (stereo not given)", "TGI", ">", 100),
    ("O=C(Cc1n[nH]c(=O)c2ccccc12)OCc1c(Cl)cccc1Cl", "TGI", ">", 100),
    ("Clc1ccc(C(Cn2ccnc2)OCc2ccsc2Cl)c(Cl)c1 (stereo not given)", "TGI", "=", 8.22),
    ("COc1ccc(C(=O)N2c3ccccc3N(C)n3cccc3C2CC(=O)O)cc1 (stereo not given)", "TGI", ">", 100),
    ("CCOC(=O)C(COS(C)(=O)=O)(COS(C)(=O)=O)C(=O)OCC", "TGI", ">", 100),
    ("Cc1cn(CCCC2=NCCCN2)c(=O)[nH]c1=O", "TGI", ">", 100),
    ("COc1ccc(/C(C)=C(\\c2ccc(Cl)cc2)c2ccc(OCCN3CCCCC3)cc2)cc1", "TGI", "=", 10.6),
    ("C=C1CC(C)(COc2ccc3c(C)c(C)c(=O)oc3c2C)OC1=O (stereo not given)", "TGI", "=", 15.9),
    ("NC(N)=NN=C(c1ccccc1)c1ccccc1", "TGI", ">", 100),
    ("CC/C=C\\C/C=C\\C/C=C\\CCCCCCCC(=O)OC", "TGI", ">", 100),
    ("COC1=CC(=O)N(C(=O)C2CSC(C(CO)NC(=O)c3csc(/C=N/O)n3)=N2)C1 (stereo not given)", "TGI", "=", 91),
    ("Cc1cc2c(O)c(c1)CN(Cc1ccccc1)Cc1cc(C)cc(c1O)CN(Cc1ccccc1)Cc1cc(C)cc(c1O)CN(Cc1ccccc1)C2", "TGI", ">", 100),
    ("O=C(CC1(O)C(=O)Nc2c(Cl)cc(Cl)cc21)c1ccc(Br)cc1 (stereo not given)", "TGI", "=", 39.5),
    ("S=C(S)NCCNC(=S)S.[Cu+2]", "TGI", ">", 100),
    ("O=C(C1OC1c1ccc(F)cc1)C12CC3CC(CC(C3)C1)C2 (stereo not given)", "TGI", ">", 100),
    ("COC1=C(OC)C(=O)C(CCCCCCCCCC[P+](c2ccccc2)(c2ccccc2)c2ccccc2)=C(C)C1=O", "TGI", "=", 0.925),
    ("CC1CCC2C(C)(C)CC3(C)CCC1C23O (stereo not given)", "TGI", "=", 48.4),
]

* * *

Listing: TGI of selected molecules
# System: HCC-2998 colon
# protocolText: NCI tumour cell line growth inhibition, 48 h
Where a SMILES comes first, the peptide text is derived from it. [ ]: non-standard residue; d: D form. The star is where a group is joined. Dolaproine = CO[C@@H]([C@@H]1CCCN1)[C@@H](C)C(=O)O; Dil = CC[C@H](C)[C@H](NC)[C@@H](CC(=O)O)OC; X2 = C[C@@H](N*)[C@@H](O)c1ccccc1; NMeV = CN[C@H](C(=O)O)C(C)C

# molecule, assayedSystem, TGI
rows = [
    ("O=C(Nc1ncc(Cc2ccccc2)s1)c1sc2ccccc2c1Cl", "HCC-2998 colon", "12.3 µM"),
    ("CC[C@H](C)[C@@H]([C@@H](CC(=O)N1CCC[C@H]1[C@H](OC)[C@@H](C)C(=O)N[C@H](C)[C@@H](O)c1ccccc1)OC)N(C)C(=O)[C@@H](NC(=O)[C@@H](NC)C(C)C)C(C)C (H-[NMeV]V[Dil][Dolaproine]-X2)", "HCC-2998 colon", "> 100 µM"),
    ("CC#CC(O)(C(=O)OC1CCC2CCC1N2C)C1CCCC1 (stereo not drawn)", "HCC-2998 colon", "> 100 µM"),
    ("CCCCCCCCCCCCc1ccsc1-c1ccc(-c2ccc(-c3sc(-c4cc(CCCCCCCCCCCC)c(-c5ccc(-c6ccc(-c7sccc7CCCCCCCCCCCC)s6)s5)s4)cc3CCCCCCCCCCCC)s2)s1", "HCC-2998 colon", "> 100 µM"),
    ("O=C1Nc2ccccc2/C1=C\\c1c(-c2ccccc2)nc2ccccn12", "HCC-2998 colon", "34.8 µM"),
    ("N#Cc1c(N)c2c(c(-c3ccccc3)c1-c1ccccc1)C(=O)N(N)C2=O", "HCC-2998 colon", "> 100 µM"),
    ("C=C(Cl)C(Cl)(CBr)CCCC(C)(C)Cl (stereo not drawn)", "HCC-2998 colon", "29.5 µM"),
    ("COc1cccc2[nH]c3c4c(c5c(c3c12)C(=O)N(CN1CCN(C)CC1)C5=O)CCC4", "HCC-2998 colon", "> 76 µM"),
    ("CCCCC(CCCCCC(CCCC)C1NC(C)Cc2cc(OC)c(OC)cc21)C1NC(C)Cc2cc(OC)c(OC)cc21 (stereo not drawn)", "HCC-2998 colon", "0.742 µM"),
    ("O=C(CC(=O)n1nc(-c2ccccc2)c(N=Nc2ccccc2Cl)c1-c1ccccc1)Nc1ccc(Cl)cc1", "HCC-2998 colon", "> 100 µM"),
    ("COc1ccc2c(c1)/C(=N/OC(C)=O)c1c-2c(Nc2cccc(/C(C)=N/OC(C)=O)c2)nc2ccccc12", "HCC-2998 colon", "> 100 µM"),
    ("Oc1c(Br)cc(Br)c2ccc(Cn3cc(-c4ccc(C(F)(F)F)cc4)nn3)nc12", "HCC-2998 colon", "22.6 µM"),
    ("COc1cc(Nc2ccnc(NCCNc3ccnc4cc(Cl)ccc34)n2)cc(OC)c1", "HCC-2998 colon", "3.78 µM"),
    ("CCOC(=O)C1=c2[nH]c3cccc4cccc(c43)n2C(=O)CC1", "HCC-2998 colon", "> 100 µM"),
    ("O=C1/C(=C\\c2cccc(Oc3ccccc3)c2)SC(c2ccccc2)N1c1ccccc1Cl (stereo not drawn)", "HCC-2998 colon", "78.9 µM"),
    ("c1ccc2c(c1)c1c(n2CCOCCCN2CCCCC2)CCCC1", "HCC-2998 colon", "33.7 µM"),
    ("O=C(Cc1n[nH]c(=O)c2ccccc12)OCc1c(Cl)cccc1Cl", "HCC-2998 colon", "> 100 µM"),
    ("CC1(C)OCC(C2OC3OC(C)(C)OC3C2N)O1 (stereo not drawn)", "HCC-2998 colon", "> 100 µM"),
]

* * *

# Tested on: SR leukemia
# protocolText: NCI tumour cell line growth inhibition, 48 h; in the data active = GI50 below about 0.43 µM; inactive = the rest
Outcomes: 1.0 for active, 0.0 for inactive

# molecule, assignedClass
records = [
    ("CCC[CH2][Sn]1([CH2]CCC)[O]CC(CN2CCCCC2)[O]1 (centres undefined)", 1.0),
    ("O=C1/C=C/[C@@H](O)[C@@H]2C[C@@H](O)C[C@H]2/C=C/CCC[C@H](CCOCc2ccccc2)O1", 1.0),
    ("Oc1c(Br)cc(Br)c2ccc(Cn3cc(-c4ccc(C(F)(F)F)cc4)nn3)nc12", 0.0),
    ("COc1cc(Nc2ccnc(NCCNc3ccnc4cc(Cl)ccc34)n2)cc(OC)c1", 0.0),
    ("COC1=C(OC)C(=O)C(CCCCCCCCCC[P+](c2ccccc2)(c2ccccc2)c2ccccc2)=C(C)C1=O", 0.0),
    ("COc1cc(/C=C/C(=O)c2ccc(Nc3nc(NCCO)nc(N4CCOCC4)n3)cc2)cc(OC)c1OC", 1.0),
    ("O=C(Nc1ccc2[nH]c3ccccc3c2c1)c1ccccc1Cl", 0.0),
    ("Clc1ccc2c(N3CCN(c4ccnc(NC5CCCCC5)n4)CC3)ccnc2c1", 0.0),
    ("CC1=C(C(=O)Nc2ccc(F)c(Cl)c2)C(c2cccc(Cl)c2)NC(=S)N1 (centres undefined)", 0.0),
]

* * *

Below is a list of entries, each paired with its recorded TGI value.
# System: U251 CNS
# protocolText: NCI tumour cell line growth inhibition, 48 h

# compound, TGI
measured = [
    ("O=C1/C=C/[C@@H](O)[C@@H]2C[C@@H](O)C[C@H]2/C=C/CCC[C@H](CCOCc2ccccc2)O1", "> 100 µM"),
    ("CCOC(=O)C1=c2[nH]c3cccc4cccc(c43)n2C(=O)CC1", "> 100 µM"),
    ("Cc1cn(CCCC2=NCCCN2)c(=O)[nH]c1=O", "> 100 µM"),
    ("COC(=O)c1oc([N+](=O)[O-])c(Cl)c1Cl", "15.5 µM"),
    ("[N-]=[N+]=Nc1cc(=O)n(-c2ccccc2)c2ccccc12", "> 100 µM"),
    ("COc1ccc2c(c1)/C(=N/OC(C)=O)c1c-2c(Nc2cccc(/C(C)=N/OC(C)=O)c2)nc2ccccc12", "> 100 µM"),
    ("COc1cc(Nc2ccnc(NCCNc3ccnc4cc(Cl)ccc34)n2)cc(OC)c1", "4.27 µM"),
    ("Cc1cc(S(=O)(=O)n2cc[nH]c2=O)c(SCCCN(C)C)cc1Cl", "> 100 µM"),
    ("CC1(C)OCC(C2OC3OC(C)(C)OC3C2N)O1 (stereo not given)", "> 100 µM"),
    ("O=C1Nc2ccccc2/C1=C\\c1c(-c2ccccc2)nc2ccccn12", "21 µM"),
]
